For each record, write down the corresponding max. MFI.
molecular target: full-length H1 A/California/07/2009 HA expressed on 293T cells (influenza A virus A/California/07/2009 (H1N1)); assay: flow cytometry, HA-expressing 293T
Answers are plain numbers, in MFI.

P38 (antibody, V domains shown) VH: EVQLVESGGGLVQPGGSLRLSCAASGFTINDGGIHWVRQAPGKGLEWVAFIGPYGGSTFYADSVKGRFTISADTSKNTAYLQMNSLRAEDTAVYYCAGFIGDYSSYHGVMDYWGQGTLVTVSS VL: DIQMTQSPSSLSASVGDRVTITCRASQDVWGYVAWYQQKPGKAPKLLISWPGGLYSGVPSRFSGSGSGTDFTLTISSLQPEDFATYYCQQYSSFPLTFGQGTKVEIKR
988
P25 (antibody, V domains shown) VH: EVQLVESGGGLVQPGGSLRLSCAASGFTISNGGIHWVRQAPGKGLEWVAGIGPYGGYTYYADSVKGRFTISADTSKNTAYLQTNSLRAEDTAVYYCARFYGYSGIMDYWGQGTLVTVSS VL: DIQMTQSPSSLSASVGDRVTITCRASQDVWGYVAWYQQKPGKAPKLLISGSRSLYSGVPSRFSGSGSGTDFTLTISSLQPEDFATYYCQQYYNYPITFGQGTKVEIKR
2380

## Input Return reported max. MFI; argument: S45 (antibody, V domains shown) VH: EVQLVESGGGLVQPGGSLRLSCAASGFTINGSSIHWVRQAPGKGLEWVAYIGPFGGSTYYADSVKGRFTISADTSKNTAYLQMNSLRAEDTAVYYCARFWHGYNLYMDYWGQGTLVTVSS VL: DIQMTQSPSSLSASVGDRVTITCRASQDVGWWVAWYQQKPGKAPKLLIYGARFLYSGVPSRFSGSGSGTDFTLTISSLQPEDFATYYCQQYFNGPLTFGQGTKVEIKR
## Output 2470
